Entries and their measured mortality at 800 ppm follow.
Tested on: Yellow fever mosquito (Aedes aegypti)
measurement notes: whole plant or invertebrate
Format: in vivo
test parameters: 48 h, larval mortality visually assessed after 2 days at 28 ± 1°C, read-out: mortality in comparison with untreated controls

Below, each entry is followed by its recorded mortality at 800 ppm result.
Problem: Look up and report measured mortality at 800 ppm (Yellow fever mosquito (Aedes aegypti)) for the following molecule: Cc1ccc(C(C)C)c(NC(=S)N/N=C/c2ccc(-c3nn(C)c(N4CCc5cc(OC(F)(F)F)ccc5C4=O)c3C)cc2)c1
Result: ≥ 50%

Problem: Look up and report measured mortality at 800 ppm (Yellow fever mosquito (Aedes aegypti)) for the following molecule: Cc1ccc(C(C)C)c(N2C(=O)CS/C2=N\N=C\c2ccc(-c3nn(C)c(N4CCc5cc(OC(F)(F)F)ccc5C4=O)c3C)cc2)c1
Result: ≥ 50%

Pending molecule:
Problem: Look up and report measured mortality at 800 ppm (Yellow fever mosquito (Aedes aegypti)) for the following molecule: Cc1ccc(C(C)C)c(N2C(=O)CS/C2=N\N=C\c2ccc(-c3nn(C)c(N4Cc5cc(OC(F)(F)F)ccc5C4=O)c3C)cc2)c1
Result: ≥ 50%
